Test: amyloid nucleation score (Sup35N fusion, yeast selection) (log enrichment); library NNK2; higher = more nucleation; inactive = no reads after selection;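 note: zero at mode of non-aggregating sequences after 7 days selection at 30°C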
Attribute: amyloid nucleation score
Just the number, please, no unit attached.

Some substances with known amyloid nucleation score results, for comparison:
{"columns": ["Substance", "Experimental Readout", "Result Number"],
 "data": [
  ["YMYLTCSLGSVCRFLSEHMW", "amyloid nucleation score", -0.605],
  ["FNFYKWYYIGLTAISFVYTV", "amyloid nucleation score", -1.51],
  ["MMIAWFSRMCFF", "amyloid nucleation score", 2.92]
]}

Consider the substance "SSCRTSSWLALVWFGLGVSG" and give its measured amyloid nucleation score.
0.177

Please report the recorded amyloid nucleation score for "GGNSQMFRLSLGDTKCSGSY" .
-1.06

What measured amyloid nucleation score goes with "GMYGLCF" ?
-0.524

If you can, please state the reported amyloid nucleation score value of "VTRKVLGYCRVW" .
0.472

Requested read-out: amyloid nucleation score. Entry: "NLQLVGVMNPDPCESWN"
0.222

Which amyloid nucleation score is reported for this substance? "RITVEKHSQCALMLHRQYCV"
1.39

I am curious: what amyloid nucleation score value has been reported for "GVLDRFPDESNILGVSFSCL" ?
-0.575

Which amyloid nucleation score value is on record for "LASTDTWHCVGGEFHKSA" ?
-0.571

====

Test: amyloid nucleation score (Sup35N fusion, yeast selection) (log enrichment); library NNK2; higher = more nucleation; inactive = no reads after selection
Experimental Readout: amyloid nucleation score

{"columns": ["Substance", "amyloid nucleation score"],
 "data": [
  ["GRLLQGWLIAEHVITVHFPM", "inactive"],
  ["PHSLVLSGWHNLDAFFNATL", "inactive"],
  ["SGWTFGVQCLYTLVSMFLLC", 1.5],
  ["TNSDSSTQKVIVMSLNAVVP", 6.11],
  ["YVGGTVGV", -0.807],
  ["QKLLWCYACNVMRARSGSGT", 7.18]
]}

Item under review: "CKYFLLVFIVVNYFGLGPMP" . Reported amyloid nucleation score?
inactive

Look up amyloid nucleation score: "DKYSIVSSGPYMSNKSLVRR"
-0.109

I have this substance here, "NFSFRLYLLLETSIMYIGKT" , and I need its recorded amyloid nucleation score.
-1.3

====

Listed substances paired with reported amyloid nucleation score
Test: amyloid nucleation score (Sup35N fusion, yeast selection) (log enrichment); library NNK2; higher = more nucleation; inactive = no reads after selection
# print the numeric value only

Recorded results for 3 substances are shown here.
{"columns": ["Substance", "amyloid nucleation score"],
 "data": [
  ["NLWRLISNLIDVMHPMYSTE", -0.089],
  ["IQYGEIGHIFCKVVISLNLE", 1.47],
  ["ICNALCLYSVNLLPGTLMGI", 7.49]
]}

Find the recorded amyloid nucleation score belonging to "VRVGCTWS" and report it.
0.618

Given the substance "VTFNALLGFLASICVITSRI" , what is its reported amyloid nucleation score?
3.16

I'd like to know its amyloid nucleation score. The substance in question is "YVSLNQRVNFA"
-1.47

Given "FCKYANSGGCNHSMSDAV" , state its recorded amyloid nucleation score.
-0.761

// query amyloid nucleation score value for entry "GALRPAFLSCKMVWR"
0.528

Fill blank: measured amyloid nucleation score of the substance "IIVIRD" is ____.
0.005
